System: HeLa Kyoto;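 further: HeLa Kyoto cells arrested at G1/S by double thymidine block, proteins quantified by TMT10plex mass spectrometry in mild NP-40 versus SDS extracts, three biological replicates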
Experiment: solubility in G1/S (NP-40 vs SDS abundance) (log2 ratio); higher = more soluble
Conditions: cell cycle stage: G1/S
READOUT: solubility in G1/S (log2)
When you answer, write just the number.

## Task Report solubility in G1/S (log2) for MSELEQLRQEAEQLRNQIRDARKACGDSTLTQITAGLDPVGRIQMRTRRTLRGHLAKIYAMHWGTDSRLLVSASQDGKLIIWDSYTTNKVHAIPLRSSWVMTCAYAPSGNFVACGGLDNICSIYSLKTREGNVRVSRELPGHTGYLSCCRFLDDNQIITSSGDTTCALWDIETGQQTVGFAGHSGDVMSLSLAPDGRTFVSGACDASIKLWDVRDSMCRQTFIGHESDINAVAFFPNGYAFTTGSDDATCRLFDLRADQELLMYSHDNIICGITSVAFSRSGRLLLAGYDDFNCNIWDAMKGDRAGVLAGHDNRVSCLGVTDDGMAVATGSWDSFLKIWN [GNB2]
## Result -0.771
